# system_name: HLA-A*02:01
# assay_name: IEDB peptide-MHC binding, purified MHC/competitive/radioactivity; bounds were set here for any values at or beyond the usual limits of such assays
# measurement_setup: source organism: Vaccinia virus WR
pIC50: −log10 of the molar value.
measurement_type: pIC50

chain_sequence=IVWEKKSLV measurement_type=pIC50 reported=8.68
chain_sequence=YTQDELINV measurement_type=pIC50 reported=8.14
chain_sequence=VLGKVTINNL measurement_type=pIC50 reported=5.75
chain_sequence=YTYLIGEKI measurement_type=pIC50 reported=5.30
chain_sequence=NIFMTLVPV measurement_type=pIC50 reported=7.96
chain_sequence=ALVALVITI measurement_type=pIC50 reported=8.72
chain_sequence=CTINVNSLA measurement_type=pIC50 reported=5.98
chain_sequence=SLDQTHIKTI measurement_type=pIC50 reported=6.12
chain_sequence=AITLVVISVI measurement_type=pIC50 reported=6.31
chain_sequence=VIVIYIFTV measurement_type=pIC50 reported=6.98
chain_sequence=DIIDFLEGA measurement_type=pIC50 reported=6.35
